- measurementTarget: T1, Human GHR-Fc-10x His (extracellular region of human growth hormone receptor fused to human Fc) (human, UniProt P10912 50-256)
- T1 construct: Captured by its 10x His-tag on a Ni-NTA sensor chip for SPR; not shown: human Fc domain of vector pAB1200 with its linker; 10x His-tag replacing the AviTag
- T1 sequence (looked up): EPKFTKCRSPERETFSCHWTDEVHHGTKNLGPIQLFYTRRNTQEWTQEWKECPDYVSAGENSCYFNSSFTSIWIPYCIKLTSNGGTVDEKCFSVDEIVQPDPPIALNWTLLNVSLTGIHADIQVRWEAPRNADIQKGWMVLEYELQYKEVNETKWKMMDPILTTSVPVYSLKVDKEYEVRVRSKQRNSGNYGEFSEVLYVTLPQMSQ
- protocolDescription: SPR, GHR-Fc-10xHis captured on Ni-NTA chip, Fab as analyte, 1:1 fit
observationType: pKd
Here pKd is given on a logarithmic scale as minus log10 of the concentration in mol/L.

(Q) I'd like to know its pKd. The binder in question is GHR2 Fab (Fab, V domains shown, Fab) VH: EVQLVESGGGLVQPGGSLRLSCAASGFNLYYSSIHWVRQAPGKGLEWVAYISPSYGSTSYADSVKGRFTISADTSKNTAYLQMNSLRAEDTAVYYCARYYDYSWPWYWHGGGPAFDYWGQGTLVTVSS VL: DIQMTQSPSSLSASVGDRVTITCRASQSVSSAVAWYQQKPGKAPKLLIYSASSLYSGVPSRFSGSRSGTDFTLTISSLQPEDFATYYCQQYEEYPLITFGQGTKVEIKR
(A) 7.77
